These entries and their values trace back to paper PMC8158703.

For hCA IX (Homo sapiens), measured Ki is reported for the entries below.
ENDPOINT NAME: Ki (nM)

P. CCc1ccc(CCOc2ccc(CC3SC(=O)NC3=O)cc2)nc1 (stereo not drawn) [Compound 13]
Q. CN(CCOc1ccc(CC2SC(=O)NC2=O)cc1)c1ccccn1 (stereo not drawn) [Compound 12]
R. Cc1c(C)c2c(c(C)c1O)CCC(C)(COc1ccc(CC3SC(=O)NC3=O)cc1)O2 (racemic) [Compound 11]
Sort the molecules on Ki; start with the lowest figure. # the answer lists labels in the order requested
P, R, Q
(P: 750 nM, R: 1300 nM, Q: 2500 nM)
